method summary: NCI Yeast Anticancer Drug Screen. Data for the sgs1 mgt1 strain (AID 161);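 note: 0% = growth of cultures given vehicle only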
condition notes: S. cerevisiae sgs1 mgt1 strain, at 50.0 µM, active compounds read high
This is part of a sample that, as a whole, favours compounds with a hit. Of some 79,000 tested, about 15% had one in any assay. Activity calls are given as the source filed them. Cut-off read from the data, not from the text of the source: active = growth inhibition above about 70%; inactive = the rest. *1 amine or outer side, *2 acyl side, *3 side chain or, on linkers, in order; H or OH if unused. Where a SMILES comes first, the peptide text is derived from it. The star is where a group is joined. γGlu = O=C(O)[CH](CCC(=O)[*:2])N[*:1]; Cbz = O=C(OCc1ccccc1)*; NHOH = ON*
measured attribute: growth inhibition

In [3]: df
Out[3]:
                                   molecule           measured
0                  CC(=O)OCCc1ccc2c(c1)OCO2   6.05% (inactive)
1        Cc1ccc(N=Nc2ccc(C)cc2NC(=O)CCl)cc1  -21.9% (inactive)
2  O=C(O)C(CO)NC(=O)C1CCCN1C(=O)OCc1ccccc1 (stereo not drawn) (Cbz-Pro-Ser-OH; configuration not given here)   -5.7% (inactive)
3  COc1cc2c(cc1OC)CN1CCc3ccccc3CC1C2 (stereo not given)  -16.8% (inactive)
4  CCOc1ccc(N=C2C=C(Nc3ccc(OCC)cc3)C(=Nc3ccc(OCC)cc3)C=C2Nc2ccc(OCC)cc2)cc1  -24.2% (inactive)
5  NC(CCC(=O)NC(CCC(=O)NO)C(=O)NCC(=O)O)C(=O)O (stereo not given) (γGlu-Glu(NHOH)-Gly-OH; configuration not given here)  -11.6% (inactive)
6  c1ccc(CC2NCCc3c2[nH]c2ccccc32)cc1 (stereo not given)  -5.05% (inactive)
7        CCOC(=O)CNc1c(OCc2ccccc2)c(=O)c1=O  -18.1% (inactive)
8  C=C(C)C(=O)OCCOCC(CC)CCCC (stereo not given)     -5% (inactive)
9  Clc1cc2nn(C3CCCCO3)nc2cc1Cl (stereo not given)  -18.4% (inactive)
